src = patent US10034854B2

# EXPERIMENTAL_PROTOCOL: Solubility in bio-relevant fluids (FaSSIF, FeSSIF)
# Type: physicochemical
# EXPERIMENTAL_CONTEXT: Fed State Simulated Intestinal Fluid (FeSSIF), thermodynamic from solid; FeSSIF, 37° C.

- COMPOUND: "COc1cc(C(=O)O)ccc1NC(=O)[C@@H]1N[C@@H](CC(C)(C)C)[C@](C#N)(c2ccc(Cl)cc2F)[C@H]1c1cccc(Cl)c1F [Crystalline Form]"
  UNIT_ABBREVIATION: "µg/mL"
  solubility: 3

---

# EXPERIMENTAL_PROTOCOL: Caco-2 assay (permeability)
# Format: in vitro ADME
# EXPERIMENTAL_CONTEXT: human

- SMILES_REPR: "COc1cc(C(=O)O)ccc1NC(=O)[C@@H]1N[C@@H](CC(C)(C)C)[C@](C#N)(c2ccc(Cl)cc2F)[C@H]1c1cccc(Cl)c1F"
  Papp: "0.8 ×10⁻⁶ cm/s"

---

# EXPERIMENTAL_PROTOCOL: Aqueous solubility of crystalline Compound A at physiological pHs
# Assay type: physicochemical
# EXPERIMENTAL_CONTEXT: aqueous medium, aqueous buffer; crystalline form; physiological pHs (pH 1.5-7.0)

- SMILES_REPR: "COc1cc(C(=O)O)ccc1NC(=O)[C@@H]1N[C@@H](CC(C)(C)C)[C@](C#N)(c2ccc(Cl)cc2F)[C@H]1c1cccc(Cl)c1F"
  solubility: "< 0.05 µg/mL"

---

# EXPERIMENTAL_PROTOCOL: Aqueous solubility of crystalline Compound A at physiological pHs
# Assay type: physicochemical
# EXPERIMENTAL_CONTEXT: pH 1.5, aqueous buffer; crystalline forms; in water at physiological pHs (pH1.5-8.0)

- SMILES_REPR: "COc1cc(C(=O)O)ccc1NC(=O)[C@@H]1N[C@@H](CC(C)(C)C)[C@](C#N)(c2ccc(Cl)cc2F)[C@H]1c1cccc(Cl)c1F"
  solubility: "< 0.05 µg/mL"
